target: human β-Secretase (soluble part, AA1-AA460; sBACE-Fc) (Homo sapiens, UniProt P56817); construct: The soluble part of the human β-Secretase (AA1-AA460) was cloned into the ASP2-Fc10-1-IRES-GFP-neoK mammalian expression vector; made in house; assay: TR-FRET assay; format: biochemical; conditions: substrate (Europium)CEVNLDAEFK(Qsy7) 100 nM, pH 4.5, 15 min at RT; read-out: IC50 (nM) in TR-FRET assay
Sequence (P56817 22-460): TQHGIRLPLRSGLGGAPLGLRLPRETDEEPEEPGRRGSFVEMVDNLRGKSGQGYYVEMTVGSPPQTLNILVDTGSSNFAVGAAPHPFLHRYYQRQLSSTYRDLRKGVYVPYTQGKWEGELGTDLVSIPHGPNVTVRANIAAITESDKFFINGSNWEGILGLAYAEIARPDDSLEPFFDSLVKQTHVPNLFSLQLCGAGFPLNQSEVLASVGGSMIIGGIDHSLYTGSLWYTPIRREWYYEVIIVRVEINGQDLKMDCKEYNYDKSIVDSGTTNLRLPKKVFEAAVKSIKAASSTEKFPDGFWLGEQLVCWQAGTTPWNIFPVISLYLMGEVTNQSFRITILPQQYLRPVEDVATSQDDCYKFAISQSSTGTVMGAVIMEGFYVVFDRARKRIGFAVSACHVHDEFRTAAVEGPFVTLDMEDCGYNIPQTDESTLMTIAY
Counter-ions that a name gives are not always drawn.
quantity kind: IC50 (nM)

[
  {
    "compound": "COc1ccc(C2(c3cccc(-c4cc(OC)cc(OS(C)(=O)=O)c4)c3)N=C(N)N(C)C2=O)cc1 (stereo not drawn) [Example 57]",
    "unit string": "nM",
    "result value": 34
  },
  {
    "compound": "CN1C(=O)C(c2ccc(OS(C)(=O)=O)cc2)(c2ccnc(-c3cccc(C#N)c3)c2)N=C1N (stereo not drawn) [Example 34]",
    "unit string": "nM",
    "result value": 924
  },
  {
    "compound": "CN1C(=O)C(c2ccc(OC(F)F)cc2)(c2ccc(F)c(-c3cncc(OS(C)(=O)=O)c3)c2)N=C1N (stereo not drawn) [Example 73, methanesulfonate hydrochloride]",
    "unit string": "nM",
    "result value": 54
  },
  {
    "compound": "CN1C(=O)C(c2ccc(OS(C)(=O)=O)cc2)(c2cncc(-c3cccnc3F)c2)N=C1N (stereo not drawn) [Example 22]",
    "unit string": "nM",
    "result value": 1650
  },
  {
    "compound": "COc1cccc(-c2cc(C3(c4cccc(OS(=O)(=O)N(C)C)c4)N=C(N)N(C)C3=O)ccc2F)c1 (stereo not drawn) [Example 112]",
    "unit string": "nM",
    "result value": 150
  },
  {
    "compound": "CC(C)S(=O)(=O)Oc1cccc(C2(c3ccc(F)c(-c4cccc(Cl)c4)c3)N=C(N)N(C)C2=O)c1 (stereo not drawn) [Example 106]",
    "unit string": "nM",
    "result value": 363
  },
  {
    "compound": "CN1C(=O)C(c2ccc(OC(F)(F)F)cc2)(c2cccc(-c3cc(Cl)cc(OS(C)(=O)=O)c3)c2)N=C1N (stereo not drawn) [Example 59]",
    "unit string": "nM",
    "result value": 128
  },
  {
    "compound": "CCc1cc(C2(c3ccc(F)c(-c4cc(Cl)cc(OS(C)(=O)=O)c4)c3)N=C(N)N(C)C2=O)cc(CC)n1 (stereo not drawn) [Example 210, methanesulfonate hydrochloride]",
    "unit string": "nM",
    "result value": 137
  },
  {
    "compound": "CN1C(=O)C(c2ccc(OS(=O)(=O)c3ccccc3)cc2)(c2ccc(F)c(Br)c2)N=C1N (stereo not drawn) [Example 184]",
    "unit string": "nM",
    "result value": 156
  },
  {
    "compound": "COc1ccc(OC)c(S(=O)(=O)Oc2ccc(C3(c4ccc(F)c(-c5cccnc5)c4)N=C(N)N(C)C3=O)cc2)c1 (stereo not drawn) [Example 282]",
    "unit string": "nM",
    "result value": 59
  },
  {
    "compound": "CN1C(=O)C(c2cccc(OS(=O)(=O)c3ccc(-n4cccn4)cc3)c2)(c2ccc(F)c(Br)c2)N=C1N (stereo not drawn) [Example 227]",
    "unit string": "nM",
    "result value": 1460
  },
  {
    "compound": "CN1C(=O)C(c2cccc(OS(=O)(=O)c3ccc4c(c3)oc(=O)n4C)c2)(c2ccc(F)c(-c3cncnc3)c2)N=C1N (stereo not drawn) [Example 240]",
    "unit string": "nM",
    "result value": 20
  },
  {
    "compound": "CC(C)S(=O)(=O)Oc1cccc(C2(c3ccc(F)c(-c4cccnc4)c3)N=C(N)N(C)C2=O)c1 (stereo not drawn) [Example 105]",
    "unit string": "nM",
    "result value": 343
  },
  {
    "compound": "COc1cccc(-c2cc(C3(c4cccc(OS(=O)(=O)C(C)C)c4)N=C(N)N(C)C3=O)ccc2F)c1 (stereo not drawn) [Example 108]",
    "unit string": "nM",
    "result value": 186
  },
  {
    "compound": "CN1C(=O)C(c2ccc(OS(=O)(=O)c3c(Cl)nc4sccn34)cc2)(c2ccc(F)c(-c3cccnc3)c2)N=C1N (stereo not drawn) [Example 286]",
    "unit string": "nM",
    "result value": 68
  },
  {
    "compound": "CN1C(=O)C(c2cccc(OS(=O)(=O)c3ccccn3)c2)(c2ccc(F)c(Br)c2)N=C1N (stereo not drawn) [Example 226]",
    "unit string": "nM",
    "result value": 859
  },
  {
    "compound": "CN1C(=O)C(c2ccc(OS(C)(=O)=O)cc2)(c2ccc(F)c(-c3cncs3)c2)N=C1N (stereo not drawn) [Example 188, methanesulfonate hydrochloride]",
    "unit string": "nM",
    "result value": 379
  },
  {
    "compound": "CN1C(=O)C(c2cccc(OS(=O)(=O)C(F)(F)F)c2)(c2cccc(C3=CCCC3)c2)N=C1N (stereo not drawn) [Example 197, hydrochloride]",
    "unit string": "nM",
    "result value": 721
  },
  {
    "compound": "CN1C(=O)C(c2ccc(OS(=O)(=O)C(F)(F)F)cc2)(c2ccc(F)c(-c3cncc(Cl)c3)c2)N=C1N (stereo not drawn) [Example 140]",
    "unit string": "nM",
    "result value": 116
  },
  {
    "compound": "CCCS(=O)(=O)Oc1cccc(C2(c3ccc(F)c(-c4cc(Cl)cc(Cl)c4)c3)N=C(N)N(C)C2=O)c1 (stereo not drawn) [Example 100]",
    "unit string": "nM",
    "result value": 395
  },
  {
    "compound": "Cc1cc(C2(c3cccc(-c4cc(Cl)cc(OS(C)(=O)=O)c4)c3)N=C(N)N(C)C2=O)cc(C)n1 (stereo not drawn) [Example 306, methanesulfonate hydrochloride]",
    "unit string": "nM",
    "result value": 89
  },
  {
    "compound": "CN1C(=O)C(c2cccc(OS(C)(=O)=O)c2)(c2ccc(F)c(-c3cncnc3)c2)N=C1N (stereo not drawn) [Example 94]",
    "unit string": "nM",
    "result value": 472
  },
  {
    "compound": "COc1cc(OS(C)(=O)=O)cc(-c2cccc(C3(c4ccc(OC(F)(F)F)cc4)N=C(N)N(C)C3=O)c2)c1 (stereo not drawn) [Example 58]",
    "unit string": "nM",
    "result value": 81
  },
  {
    "compound": "CN1C(=O)C(c2cccc(OS(=O)(=O)c3ccc(Cl)s3)c2)(c2ccc(F)c(Br)c2)N=C1N (stereo not drawn) [Example 231]",
    "unit string": "nM",
    "result value": 859
  },
  {
    "compound": "COc1cc(OS(C)(=O)=O)cc(-c2cc(C3(c4ccccc4)N=C(N)N(C)C3=O)ccc2F)c1 (stereo not drawn) [Example 84]",
    "unit string": "nM",
    "result value": 159
  },
  {
    "compound": "CN1C(=O)C(c2ccc(OS(C)(=O)=O)cc2)(c2ccc(F)c(C3=CCCCC3)c2)N=C1N (stereo not drawn) [Example 299]",
    "unit string": "nM",
    "result value": 330
  },
  {
    "compound": "COc1ccc(C#N)c(-c2cc(C3(c4ccc(OS(C)(=O)=O)cc4)N=C(N)N(C)C3=O)ccc2F)c1 (stereo not drawn) [Example 167]",
    "unit string": "nM",
    "result value": 46
  }
]

====

target: human β-Secretase (soluble part, AA1-AA460; sBACE-Fc) (Homo sapiens, UniProt P56817); construct: The soluble part of the human β-Secretase (AA1-AA460) was cloned into the ASP2-Fc10-1-IRES-GFP-neoK mammalian expression vector; made in house; assay: TR-FRET assay; assay type: biochemical; conditions: substrate (Europium)CEVNLDAEFK(Qsy7) 100 nM, pH 4.5, 15 min at RT; read-out: IC50 (nM) in TR-FRET assay
quantity kind: IC50 (nM)

[
  {
    "compound": "CN1C(=O)C(c2cccc(OS(C)(=O)=O)c2)(c2ccc(F)c(-c3cc(Cl)cnc3F)c2)N=C1N (stereo not shown)",
    "unit string": "nM",
    "result value": 292
  },
  {
    "compound": "Cc1noc(C)c1S(=O)(=O)Oc1ccc(C2(c3ccc(F)c(-c4cncnc4)c3)N=C(N)N(C)C2=O)cc1 (stereo not shown)",
    "unit string": "nM",
    "result value": 234
  },
  {
    "compound": "CN1C(=O)C(c2cccc(OS(=O)(=O)c3cn(C)cn3)c2)(c2ccc(F)c(Br)c2)N=C1N (stereo not shown)",
    "unit string": "nM",
    "result value": 594
  },
  {
    "compound": "CN1C(=O)C(c2cccc(OS(=O)(=O)c3c(F)cccc3F)c2)(c2ccc(F)c(-c3cncnc3)c2)N=C1N (stereo not shown)",
    "unit string": "nM",
    "result value": 65
  }
]

Taken from patent US20080176862A1.
